src = PubChem BioAssay AID2530

tested system: Luciferin 4-monooxygenase (Photuris pensylvanica)
method: Secondary Assay for Luciferase (Kinase-Glo TM) Inhibition Counterscreen
test parameters: Kinase-Glo luciferase enzyme, luminescence; series mostly up to 58.1 µM
Results filed as inconclusive are left out. Active and inactive are the calls of the source. Calls come from the whole dose curve; as a rule, active = well fitted inhibition curve with a large enough effect; inconclusive = small, poorly fitted or top-dose-only effect; inactive = flat fitted curve, though single readings scatter.
Assign a class; possible classes are yes (1) = active, no (0) = inactive

Please review the following examples before continuing.
input: Hey, what did the test say about Cc1cccc(NS(=O)(=O)c2ccc3c(c2)CCC(=O)N3)c1 ?
output: no (0)

input: Lookup O=C1c2ccccc2C(=O)N1Cc1ccccn1
output: no (0)

input: One more compound: Cc1ccc(NS(=O)(=O)c2cc3c(cc2-c2cn[nH]c2)NC(=O)CO3)cc1C
output: no (0)

input: Input COc1ccc2[nH]c3c4c(ccc3c2c1)C(=O)C=CC4=O
output: no (0)

input: Try the compound Cc1ccc(NS(=O)(=O)c2cc3c(cc2-c2ccsc2)NC(=O)CO3)cc1C
output: no (0)

input: How about Cc1ccc(NS(=O)(=O)c2ccc3c(c2)n(C)c(=O)n3C)cc1C ?
output: no (0)

input: Consider next the compound COc1ccc(-c2cn3ccc(C)cc3n2)cc1 in the same way.
output: yes (1)

# ---- query compound ----
input: Field: outcome | Entry: O=C1c2ccccc2C(=O)N1c1cccc(=O)[nH]1
output: no (0)
